test system: PPARg:RXRa (NR concentration 180 nM, RXRa partner concentration 90 nM); assay: PBM binding z-score (relative to random genomic background probes); higher = stronger binding; sequences stand for … in GC…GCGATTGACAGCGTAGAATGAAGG
So basically: PBM binding z-score at 1 or higher? That is true. Lower than 1? That is false.

Please review the following examples before continuing.
1. GCAGACAGGTGAAACGTAGGTAACTCAGGGTGGC | false
2. TCTGCAAGGTCAACGATGGTCAGCTAATCTGCTA | true
3. TAGCCTAGGTCATTCAGGTGCCAGTATAGAAAGC | true

Ask: Check if PBM binding z-score >= 1 (inclusive). Item: `CCTAGCAGGCCAGGGTCACTCGAGCATTTCGCTT`
Result: false

Ask: Check if PBM binding z-score >= 1 (inclusive). Item: `GCTTACGTGTCAAAGGTTATAGCATGAATAGAAT`
Result: true

Ask: Check if PBM binding z-score >= 1 (inclusive). Item: `TTACCAAGGTGGGCTGAGGTCGTTGATCCAACTC`
Result: false

###

test system: RXRa DBDmut IVT, anti-RXR (DBD mutation: RXRa K156A/R161A, NR concentration 90 nM); assay: PBM binding z-score (relative to random genomic background probes); higher = stronger binding; sequences stand for … in GC…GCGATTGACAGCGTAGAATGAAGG
assay.endpoint: PBM binding z-score
I'd appreciate a reply containing only the number, no unit.

Some entries whose results are on file:
1. ACAGGCAGGTGATGAAGGTAACTCAGGCTATCAT | -0.414
2. CATACAGGGTCAGTTAGGCCAGAGTAGGGACGGC | 1.68
3. GCAGACAGGTGAAACGCAGGTAACGCAGGGTGGC | -0.945
4. CAAACTAGGTCAAGAGGTCAAAGTCCGCTTCCCG | 2.89
5. TAGCCTAGGTCATTCAGTGGCCAGTATAGAAAGC | 1.92

What the record says about `CCTACTAGGTCATGGTCAGCTAATCTACAGTATG` : PBM binding z-score is 1.37

What the record says about `GCTTGTAGATCAAGGTTACGAAAGACTAAGCTAA` : PBM binding z-score is 0.173

What the record says about `GCGGCTGGGGCAAAGCAGGTTACCATAAGGTTGG` : PBM binding z-score is -0.596

What the record says about `CTACCAAGGTGAACCAGGTCGTTGATTACTATTC` : PBM binding z-score is 0.903

What the record says about `GCTTGTAGATCAAGGTTGAGAAAGACTAAGCTAA` : PBM binding z-score is 0.0122

What the record says about `CCGACTGGGGCATAAAGGTTACCATACCATCCGG` : PBM binding z-score is -0.788

What the record says about `GCATATTGGTAATACAAGGTGAAAGTCCGATTGT` : PBM binding z-score is 0.349

What the record says about `CAAACTAGGTCACCGGATGGTCAAAGTCCGCATG` : PBM binding z-score is 1.74

What the record says about `ATACCAAGGTGATCGTGTGGTCGTTGATACTAAC` : PBM binding z-score is 0.0966

What the record says about `CCTACTGGGCCATCAGGTCATGGATATCAACGTT` : PBM binding z-score is -0.124

What the record says about `GGAACGAGGGCACTCGAGTTGATAGCATGGCGAT` : PBM binding z-score is 2.21

###

test system: THRa homodimer (NR concentration 90 nM); assay: PBM binding z-score (relative to random genomic background probes); higher = stronger binding; sequences stand for … in GC…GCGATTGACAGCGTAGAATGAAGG
assay.endpoint: PBM binding z-score
I'd appreciate a reply containing only the number, no unit.

Some entries whose results are on file:
1) CCTAGTTGGTCACGGTCACACACGCTATAGGTAC | 1.4
2) CGAACTAGGTCATCCAGGACAGTGAATACATTGA | 1.84
3) CGAACGAGGGCATCAGTTGATAGCAAATGCCGAT | -0.293

What the record says about `CGAACTAGGTCATTGACAGGACAGTTAATAGTAA` : PBM binding z-score is 0.893

What the record says about `ATCTCTAGTTAAAGTTCAGTGAAAGATCGATAGA` : PBM binding z-score is 0.202

What the record says about `ACTAGCCGGCCAAGGGTCACTCAAGATTAGTCCG` : PBM binding z-score is 0.383

What the record says about `AGAATGAGGTTACGATCAGGGAAACAGAATACAT` : PBM binding z-score is 0.967

What the record says about `CAAACTAGGTCAAGGTCGAAGTCGGTTTGTGCCA` : PBM binding z-score is 2.45

###

system: RARb:RXRa (NR concentration 270 nM, RXRa partner concentration 90 nM); experiment: PBM binding z-score (relative to random genomic background probes); higher = stronger binding; sequences stand for … in GC…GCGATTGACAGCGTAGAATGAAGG
The reader will find reported PBM binding z-score values listed item by item below.
I'd appreciate a reply containing only the number, no unit.

1. CGTCCAAGGTCAGACAGGTCAGTGAATGCCGAGT | 4.93
2. CCTAGTTGGTCTAGGTCACACACGCTATAGGTAC | 2.63
3. CGTCAAGGTTCAACTAAGGTAACGTAAAGCACGC | 3.14
4. TCTTGTAGATCAACTGGAGGTTAAGAAAGATCGA | 0.631
5. CAAACTAGGTCCAGAGGTCAAAGTCCGCTTCCCG | 4.11

The record that follows has no PBM binding z-score shown yet.
What the record says about `CGTCGAAGTTCAAGGTAACGTAACAGAAAGCAGC` : PBM binding z-score is 3.38

###

tested on: PPARg:RXRa 90nM:30nM, anti-RXR (NR concentration 90 nM, RXRa partner concentration 30 nM); experiment: PBM binding z-score (relative to random genomic background probes); higher = stronger binding; sequences stand for … in GC…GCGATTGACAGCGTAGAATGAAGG
The reader will find reported PBM binding z-score values listed item by item below.

Some entries whose results are on file:
1) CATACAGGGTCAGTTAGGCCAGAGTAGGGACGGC | 1.41
2) TAGCCTAGGTCATGCGGGCCACTATAGTGTCGGC | 1.5
3) ACTTACGGGTCAACGAGGTTATAGGACGCGTATA | 4.25

What the record says about `AGTCAAAGTTCATCTAGGCAACGTAAGATATGCT` : PBM binding z-score is 5.44

What the record says about `TCTTGTAGATTAAGCAGGTTAAGAAAGCCTGAGT` : PBM binding z-score is 2.08

What the record says about `TTACCAAGGTGGAGGTCGTTGATCCCTCTGTAGA` : PBM binding z-score is 1.4

What the record says about `GCAGACAGGTGAAACGCACGTAACTCAGGGTGGC` : PBM binding z-score is -0.223

What the record says about `CGTCCAAGGTGAGCAGGTCAGTGAAAGCGACGTG` : PBM binding z-score is 0.388

What the record says about `CCTATTGGGCCATTCAGAGGTCATTGATCATATG` : PBM binding z-score is 1.77

What the record says about `TCGAGTAGATTAGTCGGGGCATTCAGCCAACATA` : PBM binding z-score is 0.374

What the record says about `CGAATGAGGGCATGAGTTGATAGCAAATGCCGAT` : PBM binding z-score is 1.49

What the record says about `ATCTCTAGGTAACAAGTCCAGTGAAAGAGAGGAC` : PBM binding z-score is 1.45

What the record says about `CCTAGTTGGTCGAGGTCACACACGCTATAGGTAC` : PBM binding z-score is 2.21

What the record says about `ACTAGCAGGCCAAGGGTCACTAAAGATTAGTCCG` : PBM binding z-score is 7.61

###

tested on: PXR:RXRa (NR concentration 270 nM, RXRa partner concentration 90 nM); assay: PBM binding z-score (relative to random genomic background probes); higher = stronger binding; sequences stand for … in GC…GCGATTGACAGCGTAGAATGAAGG
assay.endpoint: PBM binding z-score
I'd appreciate a reply containing only the number, no unit.

What the record says about `ACTAGCAGGCCAAGTTTGGGCCACTCAAACAAAG` : PBM binding z-score is -0.855

What the record says about `AGAACGAGGGCACTGAGTTGATAGCACGGGTGGC` : PBM binding z-score is 1.21

What the record says about `GTAACGAGGGCAAGTTGATAGCAGAGTTTGATGG` : PBM binding z-score is 0.884

###

system: RARb homodimer (NR concentration 270 nM); assay: PBM binding z-score (relative to random genomic background probes); higher = stronger binding; sequences stand for … in GC…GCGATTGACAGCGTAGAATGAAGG
assay.endpoint: PBM binding z-score
I'd appreciate a reply containing only the number, no unit.

Some entries whose results are on file:
1) CCGACTGGGGCAAGGATACCATAACGCACAGCCA | 0.07
2) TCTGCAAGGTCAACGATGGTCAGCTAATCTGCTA | 4.58
3) ATATGTAGGTTAGCTGGGGTCATTGAGACTAGGC | 3.66
4) ACTATTAGTTGACTTAGGGCAACCCATACGACGC | 1.13
5) GCTAGCAGGCCATTTTGGTCACTCAATGACGGGC | 0.0226

What the record says about `CTACCAAGGTGGACAAGGTCGTTGATTACTATTC` : PBM binding z-score is 1

What the record says about `TCATATAGGTAAACAGGTGGAAGTCCGTAAGTTA` : PBM binding z-score is 0.247

What the record says about `AGTCTAAGTTCACTAGGTAACGTAAGATTCAGCT` : PBM binding z-score is 2.21
